Data provenance: ChEMBL document CHEMBL1201862

Quick list: GI50 per entry.
- System: SN12C
- assayMethodText: NCI tumour cell line growth inhibition, 48 h
Activity calls are given as the source filed them. No stated cut-off is given here; in the data, active = GI50 up to about 1.1 µM and inactive = higher.

See these solved cases before continuing.
| compound | GI50 |
| --- | --- |
| C=C(Cl)COC(=O)Nc1cccc(Cl)c1 | 33.8 µM (inactive) |
| Nc1cc(Cl)cc2cc(Cl)cnc12 | > 100 µM (inactive) |
| CCOc1cc(NC(C)=O)ccc1C(=O)NNS(=O)(=O)c1ccc(NC(C)=O)cc1 | 46.5 µM (inactive) |
| CC(C(=O)O)c1ccc(-n2nnc3c(=O)[nH][nH]c(=O)c32)cc1 (configuration not stated) | > 100 µM (inactive) |

Give the reported GI50 for this compound. CC(C)(C)[Si](C)(C)OCC1OC(n2cnc3c(N)ncnc32)C2OC(=S)OC12 (configuration not stated)
35.5 µM (inactive)

Give the reported GI50 for this compound. O=S(=O)(N/C(=N\O)Nc1ccc(Cl)cc1)c1cc(S(=O)(=O)c2ccccc2)cs1
15.2 µM (inactive)

Give the reported GI50 for this compound. COC(=O)C1Cc2ccc(C)cc2C1=O (configuration not stated)
> 100 µM (inactive)

Give the reported GI50 for this compound. CC(=O)NC(CCCCN(Cc1ccccc1)C(=O)N(CCCl)N=O)C(=O)NCc1ccccc1 (configuration not stated)
34.8 µM (inactive)

Give the reported GI50 for this compound. Cn1c(=O)n(CC2CS2)c2ccccc21 (configuration not stated)
> 100 µM (inactive)
